Reference source for all entries: ChEMBL document CHEMBL4689842

System: Fibroblast
Experiment: Multiplex assay against human fibroblast
Format: toxicity, cell-based
Particulars: 24 h, 10 µM, compound concentration 10 uM, replicate 1
I'd be grateful if you could share measured Population Mitochondria Different-Phenotype (%) for these entries.
Answers are plain numbers, in %.

Count: 6. Required value per item: Population Mitochondria Different-Phenotype (%).
1. Cc1c(Oc2ccc(F)cc2)c(OC(C)C)nn1-c1ccc(C2CC2)cn1
2. COc1cc2c(Nc3ccc(NC(=O)c4ccccc4)cc3)ncnc2cc1OCCCN1CCOCC1
3. CC(C)N1CCC(C)(C)c2cc(C#Cc3ccc(C(=O)O)cc3)ccc21
4. COc1cc2c(NC3CCN(C(C)C)CC3)nc(N3CCC(F)(F)CC3)nc2cc1OCCCN1CCCC1
5. c1ccc2oc(-c3csc(C4CCN(Cc5nc6ncccc6[nH]5)CC4)n3)cc2c1
6. CCn1c(-c2nonc2N)nc2cnc(Oc3cccc(NC(=O)c4ccc(OCCN5CCOCC5)cc4)c3)cc21 [GSK-269962A]

1: 7; 2: 3; 3: 0; 4: 9; 5: 0; 6: 58

Below are 2 compounds. Give each one its Population Mitochondria Different-Phenotype (%).
1. CCC(=O)O[C@]1(C(=O)SCF)[C@H](C)C[C@H]2[C@@H]3C[C@H](F)C4=CC(=O)C=C[C@]4(C)[C@@]3(F)[C@@H](O)C[C@@]21C [FLUTICASONE PROPIONATE]
2. O=C(O)c1ccc2c(c1)nc(Nc1cccc(Cl)c1)c1ccncc12

1. 27
2. 2

----------
System: HEK-293T
Experiment: Incucyte cell viability with HEK293T; further: filed as whole numbers so only -1 and 0 and 1 occur
Format: toxicity, cell-based
Particulars: human, 24 h, 10 µM, compound concentration 10 uM, replicate number 1, timepoint 24 hours
Provide the recorded Growth Rate for the entries that follow.
Give bare numbers.

A selection of reference data follows.
Compound	Growth Rate
CCCCc1nc2ccc(NC(=O)NC3CCCCC3)cc2n1Cc1ccc(-c2ccccc2C(=O)O)cc1	0
Cl.Cl.NC1(c2ccc(-c3nc4ccn5c(=O)[nH]nc5c4cc3-c3ccccc3)cc2)CCC1	0
CNc1cc2[nH]c(=O)n(-c3ccc(NC(=O)NS(=O)(=O)c4ccc(Cl)s4)cc3)c(=O)c2cc1F	0
CS(=O)(=O)N1CCN(Cc2cc3nc(-c4cccc5[nH]ncc45)nc(N4CCOCC4)c3s2)CC1	0
CCCCN(CCCC)C(=O)CN1C[C@@H](c2cc(OC)c3c(c2)OCO3)[C@H](C(=O)O)[C@H]1CC(C)(C)CCC	0
CN(C)CCCn1cc(C2=C(c3c[nH]c4ccccc34)C(=O)NC2=O)c2ccccc21	0
CCC(=O)O[C@]1(C(=O)SCF)[C@H](C)C[C@H]2[C@@H]3C[C@H](F)C4=CC(=O)C=C[C@]4(C)[C@@]3(F)[C@@H](O)C[C@@]21C [FLUTICASONE PROPIONATE]	0
NS(=O)(=O)c1cc(NC(=O)C2(c3ccccc3Cl)CC2)ccc1Oc1cccc(Cl)c1	0
CNc1nc(Nc2cnn([C@H]3CCN(C4COC4)C[C@@H]3F)c2Cl)ncc1C(F)(F)F	0
CCOc1cc(N2CCC(O)CC2)ccc1Nc1ncc2c(n1)N(C1CCCC1)CCC(=O)N2C	0

Would you mind giving Growth Rate for every compound in the list below?
1. CS(=O)(=O)c1cc(C2(NC(=O)c3cncc4c3cnn4-c3ccc(F)cc3)CC2)ccn1
2. CCc1cc2c(cc1CC)CC(NC[C@H](O)c1ccc(O)c3[nH]c(=O)ccc13)C2
3. C[C@@H](NCCc1ccc(O)cc1)[C@@H](O)c1ccc(O)cc1.Cl (relative stereo)
4. Cc1cc(C(=O)N2Cc3cnn(C)c3Nc3ccccc32)ccc1CNC(=O)N1CCC[C@H]1C(=S)N1CCCN(C)CC1
5. O=C(c1ccc(F)c(F)c1Nc1ccc(I)cc1F)N1CC(O)([C@@H]2CCCCN2)C1
6. CNC(=O)c1cc(Oc2ccc(NC(=O)Nc3cc(C(C)(C)C)nn3-c3ccc4ncccc4c3)c(F)c2)ccn1
7. O=C(Nc1cccc2c(=O)cc(-c3nnn[nH]3)oc12)c1ccc(OCCCCc2ccccc2)cc1
8. CN(C)CCOc1ccc(-c2nc(-c3ccncc3)c(-c3ccc4c(c3)CC/C4=N\O)[nH]2)cc1

1: 1; 2: 0; 3: 0; 4: 0; 5: 1; 6: 0; 7: 0; 8: 0

Please go through the list and note Growth Rate for each compound.
1. Cc1cc(NC(=O)Nc2ccc(N(C)C)cc2)c2cc(F)cc(F)c2n1
2. Nc1nc(NCCc2ccc(O)cc2)nc2nc(-c3ccco3)nn12

1: 0; 2: 0

State recorded Growth Rate for all listed compounds.
1. Cc1cc(SCc2sc(-c3ccc(C(F)(F)F)c(F)c3)nc2C)ccc1OCC(=O)O
2. CCC1(C2=NCCN2)Cc2ccccc2O1 (centres undefined)

0
1

// each listed compound needs a value for Growth Rate
1. CN(CCOc1ccc(C[C@H](Nc2ccccc2C(=O)c2ccccc2)C(=O)O)cc1)c1ccccn1.O
2. CCCn1c(=O)c2[nH]c(C34CC5CC(CC3C5)C4)nc2n(CCC)c1=O
3. Oc1ccc(-c2nc3cc(O)cc(Br)c3o2)cc1
4. CNc1nc(-c2ccc3c(N)n[nH]c3c2)cc(N2C[C@@H](C(=O)NC3CCCCC3)CC[C@H]2C)n1
5. Cc1nc(Cc2cccc(C(F)(F)F)c2)sc1-c1ccc(C(N)=O)nc1 [TP-024n]
6. CNc1oc(-c2cccc3ccccc23)nc1C#N

1. 1
2. 0
3. 0
4. 1
5. 0
6. 1
